System: HeLa
Assay: cell viability (CellTiter-Glo) relative to median of lowest-dilution wells of all drugs (fraction); higher = more viable cells
Conditions: drug concentration (unit not stated): 0.12; genotype: control (DDX11 wild type)
Each item that follows carries a reported cell viability.
Keep it simple and answer with nothing but the number.

The examples below pair each entry with its known result.
Nc1nc(Cl)nc2c1ncn2[C@@H]1O[C@H](CO)[C@@H](O)[C@@H]1F [Clofarabine]: 0.887
COc1cc([C@@H]2c3cc4c(cc3[C@@H](O[C@@H]3O[C@@H]5CO[C@@H](C)O[C@H]5[C@H](O)[C@H]3O)[C@H]3COC(=O)[C@H]23)OCO4)cc(OC)c1O [Etoposide (VP-16)]: 0.985

For the molecule O=C(Nc1c[nH]nc1-c1nc2ccc(CN3CCOCC3)cc2[nH]1)NC1CC1 [AT9283] , what cell viability is on record? 1

Quick one: cell viability for O=C(O)CCCc1ccc(N(CCCl)CCCl)cc1 [Chlorambucil] ? 0.988

Recorded cell viability of Nc1ccn([C@@H]2O[C@H](CO)[C@@H](O)[C@@H]2O)c(=O)n1 [Cytarabine] , please. 1.02

Return reported cell viability; argument: CC(=O)c1c(C)c2cnc(Nc3ccc(N4CCNCC4)cn3)nc2n(C2CCCC2)c1=O [Palbociclib] 1.02

What does the record list as cell viability for O=C(O)C1(C(=O)O)CCC1.[NH2-].[NH2-].[Pt+2] [Carboplatin] ? 1.01
